Test system: LOX IMVI melanoma
Test: NCI tumour cell line growth inhibition, 48 h
quantity: TGI

>>> readout_value("CCOC(=O)[C@H]1C[C@]23CN(C(=O)OC(C)(C)C)CC[C@H]2CCC2(SCCCS2)[C@@H]3N1C")
"> 100 µM"
>>> readout_value("CON")
"> 100 µM"
>>> readout_value("Cc1nc(N)sc1C(=O)/C=C/c1ccc([N+](=O)[O-])cc1")
"> 100 µM"
>>> readout_value("CC(OCc1ccccc1)C(NC(=O)C1CSSCC(NC(=O)C(Cc2ccccc2)NC(=O)OCc2ccccc2)C(=O)NC(Cc2ccccc2)C(=O)NC(Cc2cn(C=O)c3ccccc23)C(=O)NC(CCCCNC(=O)OCc2ccccc2)C(=O)NC(C(C)OCc2ccccc2)C(=O)N1)C(N)=O (stereo unspecified)")
"47 µM"
>>> readout_value("C[C@H](O)C(=O)SC[C@H](NC(=O)CC[C@@H](N)C(=O)O)C(=O)NCC(=O)O")
"> 100 µM"
>>> readout_value("COC(=O)C(=O)C1CCCCC(C2=NC3NN=C(N)N3C2=O)C1=O (stereo unspecified)")
"> 100 µM"

====

Entries and their measured TGI follow.
Tested on: HCT-15 colon
Assay: NCI tumour cell line growth inhibition, 48 h
quantity: TGI

>>> readout_value("O=c1c2ncn(CCCl)c2n(-c2ccccc2)c(=S)n1-c1ccccc1")
"> 100 µM"
>>> readout_value("CC(OCc1ccccc1)C(NC(=O)C1CSSCC(NC(=O)C(Cc2ccccc2)NC(=O)OCc2ccccc2)C(=O)NC(Cc2ccccc2)C(=O)NC(Cc2cn(C=O)c3ccccc23)C(=O)NC(CCCCNC(=O)OCc2ccccc2)C(=O)NC(C(C)OCc2ccccc2)C(=O)N1)C(N)=O (centres undefined)")
"> 100 µM"
>>> readout_value("Nn1c(N=Nc2c(O)[nH]c3ccccc23)n[nH]c1=S")
"> 100 µM"
>>> readout_value("CC12C(=O)N(CCN)C(=O)C1C1c3ccccc3C2c2ccccc21 (centres undefined)")
"> 100 µM"
>>> readout_value("NC(=O)C(=CN1CC(=O)NC1=S)C(N)=O")
"> 100 µM"
>>> readout_value("CCOc1ccc(NC(=O)CCC(=O)NN)cc1")
"> 100 µM"
>>> readout_value("C[n+]1c(-c2ccc(/C=N\\NC(=O)c3ccc(C(=O)N/N=C/c4ccc(-c5cn6ccsc6[n+]5C)cc4)cc3)cc2)cn2ccsc21")
"37.8 µM"
>>> readout_value("CO[C@@]12CC(=O)/C(=C(O)\\C=C\\c3ccccc3)C(=O)[C@]1(OC)Cc1ccccc1O2")
"51.7 µM"
>>> readout_value("CN(C)CCC(C(=O)C(C)(C)C)c1ccccn1 (centres undefined)")
"> 100 µM"
>>> readout_value("O=[N+]([O-])c1ccc(N2N=C(c3ccc4ccccc4c3O)CC2c2ccc(Cl)cc2Cl)c([N+](=O)[O-])c1 (centres undefined)")
"> 100 µM"
>>> readout_value("N#CSCC(=O)c1ccc(Cl)cc1")
"32.2 µM"
>>> readout_value("CC12OC3CC(O1)C1(C=O)C4CCC5(C)C(c6ccc(=O)oc6)CCC5(O)C4CCC1(C3)O2 (centres undefined)")
"0.648 µM"
>>> readout_value("CCOC(=O)N1CCC(=O)C[C@@H]1C/C=C/P1(=O)O[C@H](c2ccccc2)C(C)N1C(C)C (some centres undefined)")
"> 100 µM"
>>> readout_value("Cc1cc2c(=O)[nH]nc(N)c2c(N)n1")
"> 100 µM"
>>> readout_value("CCOc1cc(/C=N\\NC(=O)N/N=C/c2ccc(O)c(OCC)c2)ccc1O")
"> 100 µM"
>>> readout_value("CC(C)CNc1nc(N=[N+]=[N-])nc(NCC(C)C)n1")
"> 10 µM"
>>> readout_value("CC(=O)N[C@@H](Cc1ccc(OP(=O)(O)O)cc1)C(=O)N[C@H]1CCC(=O)N2CCC[C@@H](C(=O)NCc3ccc(O)cc3)N2C1=O")
"> 25 µM"
>>> readout_value("CC1(C)S[C@@H]2[C@H](NC(=O)/C=C/c3ccccc3)C(=O)N2[C@H]1C(=O)O")
"> 100 µM"
>>> readout_value("COc1ccc(C2S/C(=C\\c3cccc(O)c3)C(=O)N2NC(=O)Cc2ccccc2)cc1 (centres undefined)")
"> 100 µM"

====

Test system: NCI-H522 lung
Experiment: NCI tumour cell line growth inhibition, 48 h
Entries and their measured GI50 follow.
quantity: GI50

>>> readout_value("C=C=[CH][Sn]([c]1ccccc1)([c]1ccccc1)[c]1ccccc1")
"1360 nM"
>>> readout_value("N#Cc1c(Oc2ccc(F)c(NC(=O)Cc3cccc(C(F)(F)F)c3)c2)ccc2nc(NC(=O)C3CC3)sc12")
"942 nM"
>>> readout_value("N#CSCC(=O)c1ccc(Cl)cc1")
"2690 nM"
>>> readout_value("CN1CCN(c2ccc3nc4c(nc3c2C(F)(F)F)C(=O)c2ncccc2C4=O)CC1")
"1160 nM"
>>> readout_value("O=C(/C=C/c1cccc(B(O)O)c1)c1cccc(B(O)O)c1")
"1510 nM"
>>> readout_value("C/C(=N\\Nc1cccc(Cl)n1)c1ccccn1")
"508 nM"

====

Entries and their measured TGI follow.
Test system: MOLT-4 leukemia
Assay: NCI tumour cell line growth inhibition, 48 h
quantity: TGI

>>> readout_value("CSc1ccc(C2=NN(C(=O)c3ccc(N)cc3)C(c3ccc(F)cc3)C2)cc1 (stereo not given)")
"38.2 µM"
>>> readout_value("Cc1c(N2C(=O)/C(=C\\c3ccc(N(C)C)cc3)N=C2c2ccccc2)c(=O)n(-c2ccccc2)n1C")
"> 100 µM"
>>> readout_value("CC1=NN(c2ccccc2)C(=O)C1N=Nc1ccc(Br)c(C)c1 (stereo not given)")
"> 100 µM"
>>> readout_value("CC(C)c1cccc(C(C)C)c1NC1=CC(=O)C(=O)c2ccccc21")
"> 100 µM"
>>> readout_value("CCOC(=O)CCc1c(C)[nH]c2c(C)c3c([nH]c4ccc(Cl)cc43)c(C)c2c1=O")
"> 100 µM"
>>> readout_value("CC(C)CNc1nc(N=[N+]=[N-])nc(NCC(C)C)n1")
"> 10 µM"
>>> readout_value("CO[C@]12C[C@H](CNC(=O)c3cc(Br)c(Br)[nH]3)O[C@H]1NC(=O)N2")
"> 100 µM"
>>> readout_value("CCCCCn1cnc2c1S(=O)(=O)N(C)C(NC(=O)c1ccccc1)=N2")
"> 100 µM"
>>> readout_value("Cc1ccc(-c2cc(/C=N/O)on2)cc1")
"> 100 µM"
>>> readout_value("Cc1cc(Br)cc(C)c1NC(=O)C(=O)C1C(=O)C(CC2C(=O)c3ccccc3C2=O)C(=O)CC1(C)C (stereo not given)")
"74.5 µM"

====

Entries and their measured TGI follow.
Tested on: ACHN renal
Experiment: NCI tumour cell line growth inhibition, 48 h
quantity: TGI

>>> readout_value("O=C1N[C@@H]2c3c(Br)sc(Br)c3C(=O)[C@@H]2N1")
"14.1 µM"
>>> readout_value("COC(=O)/C(=N\\O)C(C(=O)C=C(C)C)C(=O)C(=O)Nc1ccccc1C (stereo unspecified)")
"> 100 µM"
>>> readout_value("O=C(NC/C(Cl)=C/Cl)Nc1cccc2c1CCCC2")
"> 100 µM"
>>> readout_value("CN(C)/C=N/S(=O)(=O)c1nn2c(C=O)c(-c3ccc([N+](=O)[O-])cc3)nc2s1")
"10.5 µM"
>>> readout_value("O=C(CC1(O)C(=O)Nc2c(Cl)ccc(Cl)c21)c1ccc(C2CC2)cc1 (stereo unspecified)")
"20.2 µM"
>>> readout_value("CC1=NN(c2ccccc2)C(=O)C1=C1SCCCS1")
"> 100 µM"
>>> readout_value("Cc1cc(C)c(NS(=O)c2cccc([N+](=O)[O-])c2)c(C)c1 (stereo unspecified)")
"> 100 µM"
>>> readout_value("COc1ccc(C2C(Cl)C(=O)N2NC(=O)c2ccc(N)cc2)cc1OC (stereo unspecified)")
"26.9 µM"
>>> readout_value("O=[N+]([O-])c1ccc(-c2ccccc2)c([As](=O)(O)O)c1")
"30.1 µM"
>>> readout_value("CC[C@H](C)[C@H](NC(=O)C12CC(NC(C)=O)(C1)C2)C(=O)N(C)[C@H](C[C@@H](OC(C)=O)c1nc(C(=O)N[C@@H](Cc2ccccc2)C[C@H](C)C(=O)OC)cs1)C(C)C")
"> 16.7 µM"
>>> readout_value("CC12C(=O)N(CCN)C(=O)C1C1c3ccccc3C2c2ccccc21 (stereo unspecified)")
"> 100 µM"
>>> readout_value("CCOC(=O)CCC(NC(=O)c1ccc(Oc2nc3ccccc3nc2C(=O)OCC)cc1)C(=O)OCC (stereo unspecified)")
"> 100 µM"
>>> readout_value("COc1ccc(Nc2nc3ccccc3nc2C(=O)O)cc1")
"> 100 µM"
>>> readout_value("CCN1C(=O)N(CC)C2C1NN=c1s/c(=C\\c3ccccc3)c(=O)n12 (stereo unspecified)")
"> 100 µM"
>>> readout_value("COc1cccc(-c2cc(=O)c3cccnc3[nH]2)c1")
"> 100 µM"
>>> readout_value("Cc1cc(C)c2c(c1)C(=O)C1(C2)Cc2c(ccc(C)c2C)C1=O (stereo unspecified)")
"> 100 µM"
>>> readout_value("C[N+](C)(Cc1ccc(NC(=O)CCCC(=O)ON2C(=O)CCC2=O)cc1)c1ccccc1")
"> 100 µM"
>>> readout_value("C/C(=N\\Nc1cccc(Cl)n1)c1ccccn1")
"18.4 µM"
>>> readout_value("Nn1c(N=Nc2c(O)[nH]c3ccccc23)n[nH]c1=S")
"> 100 µM"
>>> readout_value("Cc1ccc(S(=O)(=O)NCCSS(=O)(=O)c2ccc(C)cc2)cc1")
"> 100 µM"
>>> readout_value("OC(c1ccccc1)c1c(-c2ccccc2)oc(-c2ccccc2)c1C(O)c1ccccc1 (stereo unspecified)")
"19.1 µM"
